Data provenance: ChEMBL document CHEMBL3124839

- System: CHO-MG
- test method notes: Cytotoxicity against polyamine transport-deficient CHO-MG cells assessed as growth inhibition after 48 hrs by MTS assay in presence of aminoguanidine
- Format: ADME, cell-based
- experimental parameters: Cricetulus griseus
Binary label based on IC50 with cut-off 70 µM: below gives Fulfilled, not below gives Not fulfilled.

These solved cases illustrate the format of a correct answer.
INSERT INTO assay_data (smiles_input, system, category) VALUES
  ('Cl.NCCCCNCCCCNC(=O)c1cc(C(=O)NCCCCNCCCCN)cc(C(=O)NCCCCNCCCCN)c1', 'CHO-MG', 'Not fulfilled'),
  ('Cl.NCCCCNCCCCNCCCCNCc1cccc(CNCCCCNCCCCNCCCCN)c1', 'CHO-MG', 'Fulfilled'),
  ('CNCCCCNCCCCNCc1cc(CNCCCCNCCCCNC)cc(CNCCCCNCCCCNC)c1.Cl', 'CHO-MG', 'Not fulfilled'),
  ('Cl.NCCCCNCCCCNCc1cccc(CNCCCCNCCCCN)c1', 'CHO-MG', 'Fulfilled');

Then this molecule:
Query: Lab log: compare recorded IC50 with 70 µM; is it strictly lower for Cl.NCCCCNCCCCNCc1cc(CNCCCCNCCCCN)cc(CNCCCCNCCCCN)c1 ?
Response: Fulfilled
